# optical density per entry
Experimental Target: human ACVR2A (human, UniProt P27037 20-135, limits assumed); further: test concentration or dose not given here
Sequence (P27037 20-135 limits assumed): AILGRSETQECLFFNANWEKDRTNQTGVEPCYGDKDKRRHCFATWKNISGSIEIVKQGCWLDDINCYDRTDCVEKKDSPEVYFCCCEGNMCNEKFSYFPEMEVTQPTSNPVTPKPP
Experiment Notes: ELISA
Response body: numeric value in OD, unit text excluded.

Q: Look up optical density of 376_A06 (antibody, V domains shown, VH/VL only) VH: EVQLLESGGGLVQPGGSLRLSCAASGFTFDSYSMNWVRQAPGKGLEWVSGINYNSGYTSYADSVKGRFTISRDNSKNTLYLQMNSLRAEDTAVYYCARSATWHDTALDYWGQGTLVTVSS VL: DIQMTQSPSSLSASVGDRVTITCRASQSILSYLNWYQQKPGKAPKLVIYYVSNRASGVPSRFSGSGSGTDFTLTISSLQPEDFATYYCQQSYDNPLTFGGGTKVEIK and report it.
A: 3.69

Q: Look up optical density of 366_A09 (antibody, V domains shown, VH/VL only) VH: EVQLLESGGGLVQPGGSLRLSCAASGFTFSDYGMHWVRQAPGKGLEWVASINYNSGYTSYADSVKGRFTISRDNSKNTLYLQMNSLRAEDTAVYYCARSATWHDTHLDYWGQGTLVTVSS VL: DIQMTQSPSSLSASVGDRVTITCRASQSILTYLNWYQQKPGKAPKLLIYAATSRHSGVPSRFSGSGSGTDFTLTISSLQPEDFATYYCQQSYETPLTFGGGTKVEIK and report it.
A: 1.79

Q: Look up optical density of 374_H04 (antibody, V domains shown, VH/VL only) VH: EVQLLESGGGLVQPGGSLRLSCAASGFTFDSYSMNWVRQAPGKGLEWVSGINYNSGYTSYADSVKGRFTISRDNSKNTLYLQMNSLRAEDTAVYYCARSANWHDTALDYWGQGTLVTVSS VL: DIQMTQSPSSLSASVGDRVTITCRASQSILTYLNWYQQKPGKAPKLLIYAATSRASGVPSRFSGSGSGTDFTLTISSLQPEDFATYYCQQSYDNPLTFGGGTKVEIK and report it.
A: 3.28
